Biological target: DRB1*15:01
Settings: modification not given
Parameter: pIC50
Entry type: numeric. Quantity: pIC50, the -log10 of concentration in molar units.

What pIC50 value was documented for this binder, NSPRRARSVASQSII [… (position 679)] ?
4.59
